Target: Calcium and integrin-binding protein 1 (Homo sapiens) (UniProt Q99828)
Sequence (Q99828 whole entry, looked up): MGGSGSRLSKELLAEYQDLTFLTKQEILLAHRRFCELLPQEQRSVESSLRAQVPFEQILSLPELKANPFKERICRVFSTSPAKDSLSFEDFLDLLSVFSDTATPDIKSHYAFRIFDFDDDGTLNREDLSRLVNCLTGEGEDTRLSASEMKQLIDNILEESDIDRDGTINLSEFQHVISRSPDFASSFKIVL
Experiment: Primary qHTS for Identification of Calcium Integrin Binding Protein 1 (CIB1) Competitor (AID 1508620);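 note: GST tagged CIB1 binding a fluorescein labelled alphaIIb integrin peptide tracer; top concentration of the series differs between compounds; % is set by controls: 0 for no effect and ±100 for the full control effect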
Details: CIB1-GST / FITC-alphaIIb peptide fluorescence polarization; series mostly up to 57.7 µM
Inconclusive results are not listed. Calls of active or inactive are those of the source. Calls come from the whole dose curve; as a rule, active = well fitted inhibition curve with a large enough effect; inconclusive = small, poorly fitted or top-dose-only effect; inactive = flat fitted curve, though single readings scatter.
RECORDED METRIC: activity change, negative = inhibition

Example cases with answers are listed next.
- MOLECULE: "CC(=O)OC1CCC2(C)C(CCC3(C)C2CC=C2C4CC(C)(C)CCC4(C)CCC23C)C1(C)C(=O)O (configuration not stated)"
  ASSAYED SYSTEM: "Calcium and integrin-binding protein 1 (Homo sapiens) (UniProt Q99828)"
  activity change, negative = inhibition: "inactive"
- MOLECULE: "CC(=O)O[C@@H]1[C@H](O[C@@H]2OC[C@](O)(CO)[C@H]2O)[C@@H](O[C@@H]2O[C@@H](C)[C@H](O)[C@@H](O[C@@H]3O[C@H](CO)[C@@H](O)[C@H](O)[C@H]3O)[C@H]2O)[C@H](OC(=O)[C@]23CCC(C)(C)C[C@H]2C2=CCC4[C@@]5(C)C[C@H](O)[C@H](O[C@@H]6O[C@H](C(=O)O)[C@@H](O)[C@H](O)[C@H]6O)[C@@](C)(C(=O)O)C5CC[C@@]4(C)[C@]2(C)CC3)O[C@@H]1C (some centres not stated)"
  ASSAYED SYSTEM: "Calcium and integrin-binding protein 1 (Homo sapiens) (UniProt Q99828)"
  activity change, negative = inhibition: "4.9% [at 12.4 µM] (inactive)"
- MOLECULE: "Cc1cc(C)c2nc(-c3ccccn3)cc(C(=O)Nc3ccc(S(=O)(=O)Nc4onc(C)c4C)cc3)c2c1"
  ASSAYED SYSTEM: "Calcium and integrin-binding protein 1 (Homo sapiens) (UniProt Q99828)"
  activity change, negative = inhibition: "inactive"
- MOLECULE: "CC(CCc1ccc(O)cc1)O[C@@H]1O[C@H](CO[C@@H]2OC(CO)[C@H](O)[C@H]2O)[C@@H](O)[C@H](O)[C@H]1O (some centres not stated)"
  ASSAYED SYSTEM: "Calcium and integrin-binding protein 1 (Homo sapiens) (UniProt Q99828)"
  activity change, negative = inhibition: "inactive"
- MOLECULE: "Cc1occc(=O)c1O[C@@H]1O[C@H](CO)[C@@H](O)[C@H](O)[C@H]1O"
  ASSAYED SYSTEM: "Calcium and integrin-binding protein 1 (Homo sapiens) (UniProt Q99828)"
  activity change, negative = inhibition: "inactive"
- MOLECULE: "COc1cccc(C)c1C(=O)O[C@@H]1C[C@H](O[C@H]2[C@H](O)C[C@H](O[C@@H]3CCC[C@H]4[C@H]3C=C[C@@H]3CCCC/C=C/[C@H]5C=C(C(=O)O)[C@@H](C)C[C@@]56OC(=O)C(=C6O)OC(=O)[C@@]34C)O[C@@H]2C)O[C@H](C)[C@H]1O"
  ASSAYED SYSTEM: "Calcium and integrin-binding protein 1 (Homo sapiens) (UniProt Q99828)"
  activity change, negative = inhibition: "inactive"
- MOLECULE: "O=C(NC1CCN(CC(F)(F)F)CC1)c1ccc(-c2cccc(F)c2)nc1"
  ASSAYED SYSTEM: "Calcium and integrin-binding protein 1 (Homo sapiens) (UniProt Q99828)"
  activity change, negative = inhibition: "inactive"
- MOLECULE: "COc1cc(C)c(C(=O)NC2C(C)OC(OC3CCC(C)C4C3C=C(C)C3/C(C)=C\\CC/C(C)=C/C5(C)C=C(C(=O)O)C(C)CC56OC(=O)/C(=C(\\O)C34C)C6=O)C(O)C2(C)O)c(O)c1 (configuration not stated)"
  ASSAYED SYSTEM: "Calcium and integrin-binding protein 1 (Homo sapiens) (UniProt Q99828)"
  activity change, negative = inhibition: "inactive"

Task: Form: Entry = CCCCS(=O)(=O)NC(Cc1ccc(OCCCCC2CCNCC2)cc1)C(=O)O (configuration not stated) | System = Calcium and integrin-binding protein 1 (Homo sapiens) (UniProt Q99828) | activity change, negative = inhibition = ____
Output: inactive

Task: Form: Entry = COC(=O)[C@H](O)[C@H]1C(C)(C)[C@H](OC(C)=O)[C@@]2(O)C(=O)[C@]1(C)C1CC[C@]3(C)C(CC(=O)O[C@H]3c3ccoc3)[C@]13O[C@@H]32 (some centres not stated) | System = Calcium and integrin-binding protein 1 (Homo sapiens) (UniProt Q99828) | activity change, negative = inhibition = ____
Output: inactive

Task: Form: Entry = C=C1CC[C@H]2[C@@](C)(CCC(OC3OC(CO)C(O)C(O)C3O)[C@@]2(C)CO)C1C(=O)CC1=CCOC1=O (some centres not stated) | System = Calcium and integrin-binding protein 1 (Homo sapiens) (UniProt Q99828) | activity change, negative = inhibition = ____
Output: inactive

Task: Form: Entry = C=C1CCC(OC(C)=O)C2(C)CC3OC(=O)C(C)=C3CC12 (configuration not stated) | System = Calcium and integrin-binding protein 1 (Homo sapiens) (UniProt Q99828) | activity change, negative = inhibition = ____
Output: inactive

Where do the numbers come from? From PubChem BioAssay (NCATS).
